{"Molecule": "CCOC(=O)C1CN(c2ccc(OC)cc2)CC1=O (stereo not drawn)", "melting point": "58 to 60 °C"}
{"Molecule": "CC(=O)c1ccc(O)c(CS(C)(=O)=O)c1", "melting point": "206 to 208 °C"}
{"Molecule": "O=C(O)CCCS(=O)(=O)NC(=O)CCC(F)(F)C(F)(F)C(F)(F)C(F)(F)C(F)(F)C(F)(F)F", "melting point": "175 to 180 °C"}
{"Molecule": "COc1cc(C)nc(-c2ccc(CBr)cc2)n1", "melting point": "98 to 99 °C"}
{"Molecule": "CN1CS(=O)c2cccc(Br)c21 (stereo not drawn)", "melting point": "138 to 140 °C"}
{"Molecule": "CCc1cccc2nc(C(=O)OC)c(C(=O)OC)c(O)c12", "melting point": "111 to 114 °C"}
{"Molecule": "O=S(=O)(c1ccccc1)n1ccc2c(OCCCl)cccc21", "melting point": "85 to 87 °C"}
{"Molecule": "COc1cc(C(C)=O)ccc1OCCN1CCC(C(c2ccc(F)cc2)c2ccc(F)cc2)CC1", "melting point": "129 to 131 °C"}
{"Molecule": "COCCOc1ccccc1-c1cc2[nH]c3ccc(OCc4ccccc4)cc3c2c2c1C(=O)NC2=O", "melting point": "157 to 159 °C"}
{"Molecule": "CCOC(=O)C(CC(=O)c1cc(F)ccc1OC)(NC(C)=O)C(=O)OCC", "melting point": "123 to 124 °C"}
{"Molecule": "CCCC(CCC)n1c(CC)nc2c1c(=O)n(C)c(=O)n2Cc1ccc(OC)cc1", "melting point": "120 to 122 °C"}
{"Molecule": "Cc1cc(C)n2ncc(I)c2n1", "melting point": "120 to 122 °C"}
{"Molecule": "Cn1cc(C=O)cc1C(=O)O", "melting point": "178 to 180 °C"}
{"Molecule": "Sc1nc2cc3ccccc3cc2o1", "melting point": "101 to 102 °C"}
{"Molecule": "CC(C)CON(Cc1ccc(F)cc1)C(=O)C1=C(O)C(=O)N(C)C1", "melting point": "96 to 97 °C"}
{"Molecule": "Nc1cccc(Oc2ccc(C(=O)c3cccc(N)c3)cc2)c1", "melting point": "48 to 52 °C"}
{"Molecule": "CCP(=O)(OC)C(O)C(CC1CCCCC1)NC(=O)[C@H](CC(C)C)NC(=O)CCc1ccccc1 (stereo partly drawn)", "melting point": "170 to 175 °C"}
{"Molecule": "CCc1cc(CO)nn1-c1ccc([N+](=O)[O-])cc1", "melting point": "151 to 152 °C"}
{"Molecule": "COc1ccc(C(CC(C)(C)C(=O)O)c2ccc(Cl)cc2)cc1 (stereo not drawn)", "melting point": "139 to 142 °C"}
{"Molecule": "CC(C)(C)OC(=O)N1CCC2(CC1)CC(=O)N(O)C2=O", "melting point": "151 to 154 °C"}
{"Molecule": "C=CCC1=C(C)C(O)CC1=O (stereo not drawn)", "melting point": "130 to 132 °C"}
{"Molecule": "Cc1c(SCCCSc2nc3ccccc3[nH]2)ccnc1CSc1nc2ccccc2[nH]1", "melting point": "85 to 87 °C"}
{"Molecule": "C=C(c1ccccc1)C(c1ccc(F)cc1)C(O)n1ncnc1S (stereo not drawn)", "melting point": "54 to 58 °C"}
{"Molecule": "CSc1cnc2cc(-c3ccccc3Cl)sc2c1O", "melting point": "270 to 273 °C"}
{"Molecule": "CCCCc1ncc(C(=O)OCC)c(=O)n1Cc1ccc(-c2ccccc2-c2nc(=O)o[nH]2)cc1", "melting point": "151 to 154 °C"}
{"Molecule": "CCCCCCCCCCCCCCCCCCCCC(=S)NCCCN(CC)CC", "melting point": "61 °C"}
{"Molecule": "CS(=O)(=O)c1ccc(-c2nn(Cc3ccccc3)c(=S)cc2-c2ccc(F)cc2)cc1", "melting point": "182 °C"}
{"Molecule": "O=S(=O)(Nc1ccc2[nH]ncc2c1)C1CCNCC1", "melting point": "120 to 123 °C"}
{"Molecule": "CSCC1COCc2nc3c(N)nc4ccccc4c3n21 (stereo not drawn)", "melting point": "105 to 108 °C"}
{"Molecule": "Cn1c(Cl)c([N+](=O)[O-])c(=O)n(C)c1=O", "melting point": "91 to 92 °C"}
{"Molecule": "CC1Cc2c(N3CCN(C)CC3)c(F)c(N)c3c(=O)c(C(=O)O)cn1c23 (stereo not drawn)", "melting point": "240 to 243 °C"}
{"Molecule": "Nc1nc2ccccc2c2c1ncn2CCCCNC(=O)[C@@H]1C[C@H]1c1ccccc1 (relative stereo)", "melting point": "77 °C"}
{"Molecule": "COc1ccc(-n2nc(C(C)CCO)cc2-c2ccc(Cl)cc2)cc1 (stereo not drawn)", "melting point": "97.5 to 98.5 °C"}
{"Molecule": "O=C(O)[C@@H]1CSC2(CCSCC2)N1", "melting point": "196 °C"}
{"Molecule": "CC(=O)C(C)C(=O)N(c1ccc(Cl)cc1)C(C)C (stereo not drawn)", "melting point": "77 to 79 °C"}
{"Molecule": "Oc1cc2cc(-c3c(F)cccc3F)sc2c(Cl)c1Cl", "melting point": "161 to 162 °C"}
{"Molecule": "O[C@H](c1ccc(F)cc1)[C@H](Cc1ccc(C(F)(F)F)cc1)NCc1cccc2ccccc12 (racemic)", "melting point": "94 to 95 °C"}
{"Molecule": "Cc1ccc(-c2[nH]c3ccccc3c(=O)c2Cc2ccncc2)cc1", "melting point": "264 to 266 °C"}
{"Molecule": "O=C(O)CCCCCCCCCCc1ccc(Cl)cc1", "melting point": "93 °C"}
{"Molecule": "N#CCCN1CCCCC1=Nc1ccccc1N1CCOCC1", "melting point": "148 °C"}
{"Molecule": "CC(=O)n1nc(C)c2ccccc21", "melting point": "70 to 71 °C"}
{"Molecule": "CCCCc1c(/C=C/C(=O)OC)cc(OC)c2ccccc12", "melting point": "63 to 64 °C"}
{"Molecule": "CCCCCOC(=O)Cc1sc(F)c(N=c2sc(=O)n3n2CCCC3)c1Cl", "melting point": "39 to 41 °C"}
